B1: HDV Ribozyme (parent)
chain: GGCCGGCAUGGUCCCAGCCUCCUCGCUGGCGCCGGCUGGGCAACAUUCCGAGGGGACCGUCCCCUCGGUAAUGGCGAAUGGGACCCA

Variants of: B1
Assay: self-cleavage, relative activity (ratio to wild type); higher = more cleavage; co-transcriptional
observable: self-cleavage
I'd appreciate a reply containing only the number, no unit.

mutation-code	readout-value
C26G G31C	0.284

Task: Report self-cleavage for G73C C75U please.
Result: 0.0755

This collection of values is drawn from the RNAGym collection of RNA variant scans (doi:10.7554/elife.80360).
